# Hepatotoxicity: HepSE_liver disease values follow; note: call rule not given here
Please state the value as a number alone, without comment.

{"Compound": "N[C@@H](Cc1c[nH]c2ccccc12)C(=O)O [TRYPTOPHAN]", "HepSE_liver disease": 0}
{"Compound": "C/C(=C\\C(=O)OCCCCCCCCC(=O)O)C[C@@H]1OC[C@H](C[C@@H]2O[C@H]2[C@@H](C)[C@H](C)O)[C@@H](O)[C@H]1O [MUPIROCIN]", "HepSE_liver disease": 0}

input: Report HepSE_liver disease for CCC[C@@H]1C[C@@H](C(=O)N[C@@H]([C@H]2O[C@H](SC)[C@H](O)[C@@H](O)[C@H]2O)[C@@H](C)O)N(C)C1 [LINCOMYCIN] please.
output: 0

input: Let us now turn to NC[C@H]1O[C@H](O[C@H]2[C@H](O)[C@@H](O[C@H]3O[C@H](CO)[C@@H](O)[C@H](N)[C@H]3O)[C@H](N)C[C@@H]2N)[C@H](N)C[C@@H]1O [TOBRAMYCIN]
output: 0

input: Let us now turn to "CN1CCC[C@@H]1Cc1c[nH]c2ccc(CCS(=O)(=O)c3ccccc3)cc12"
output: 0

input: Let us now turn to COCC(=O)Nc1c(I)c(C(=O)NCC(O)CO)c(I)c(C(=O)N(C)CC(O)CO)c1I (configuration not stated) [IOPROMIDE]
output: 0

input: Let us now turn to CCc1cccc2c3c([nH]c12)C(CC)(CC(=O)O)OCC3 (configuration not stated) [ETODOLAC]
output: 0

input: Let us now turn to CCCN(CCC)S(=O)(=O)c1ccc(C(=O)O)cc1 [PROBENECID]
output: 0

input: Let us now turn to C[N+](C)(C)CC(O)CC(=O)[O-] (configuration not stated) [CARNITINE]
output: 0

input: Let us now turn to OC[C@H]1O[C@@H](O[C@@H]2[C@@H](CO)O[C@](O)(CO)[C@H]2O)[C@H](O)[C@@H](O)[C@H]1O [LACTULOSE]
output: 0

input: Let us now turn to C[C@]1(O)CC[C@H]2[C@@H]3CCC4=CC(=O)CC[C@]4(C)[C@@]3(F)[C@@H](O)C[C@@]21C [FLUOXYMESTERONE]
output: 0

input: Let us now turn to N=C(N)NCCN1CCCCCCC1 [GUANETHIDINE]
output: 0

input: Let us now turn to CC1(C)S[C@@H]2[C@H](NC(=O)C(C(=O)O)c3ccccc3)C(=O)N2[C@H]1C(=O)O (some centres not stated) [CARBENICILLIN]
output: 0

input: Let us now turn to CN(C)S(=O)(=O)c1ccc2c(c1)N(CCCN1CCC(CCO)CC1)c1ccccc1S2 [PIPOTIAZINE]
output: 0

input: Let us now turn to Cc1nc2n(c(=O)c1CCN1CCC(c3noc4cc(F)ccc34)CC1)CCCC2O (configuration not stated) [PALIPERIDONE]
output: 0

input: Let us now turn to Nc1nc(F)nc2c1ncn2[C@@H]1O[C@H](CO)[C@@H](O)[C@@H]1O [FLUDARABINE]
output: 0

input: Let us now turn to CC#C[C@]1(O)CC[C@H]2[C@@H]3CCC4=CC(=O)CCC4=C3[C@@H](c3ccc(N(C)C)cc3)C[C@@]21C [MIFEPRISTONE]
output: 0

input: Let us now turn to CCCCCN(C)CCC(O)(P(=O)(O)O)P(=O)(O)O [IBANDRONIC ACID]
output: 0

input: Let us now turn to Nc1ccn([C@@H]2CS[C@H](CO)O2)c(=O)n1 [LAMIVUDINE]
output: 0

input: Let us now turn to CC(C)[C@H](N)C(=O)OCC(CO)OCn1cnc2c(=O)nc(N)[nH]c21 (some centres not stated) [VALGANCICLOVIR]
output: 0

input: Let us now turn to Cc1onc(-c2c(Cl)cccc2Cl)c1C(=O)N[C@@H]1C(=O)N2[C@@H]1SC(C)(C)[C@@H]2C(=O)O [DICLOXACILLIN]
output: 0

input: Let us now turn to CN1CCC(=C2c3ccccc3CCc3sccc32)CC1 [PIZOTYLINE]
output: 0

input: Let us now turn to Clc1ccc2c(c1)CCc1cccnc1C2=C1CCNCC1 [DESLORATADINE]
output: 0

Reference for the values: ChEMBL document CHEMBL1909294
